Kindly state inhibition for each of the entries shown.
- STUDY_TARGET: 6-phosphogluconate dehydrogenase, decarboxylating (Homo sapiens)
- MEASUREMENT_NOTES: 6PGD enzyme inhibitors, primary screen, biochemical, human, recombinant enzyme, NADPH absorbance (AID 1159550)
- EXPERIMENTAL_CONDITIONS: recombinant 6PGD, NADPH absorbance 341 nm; at 10 µM; stronger effect = higher value
Where a SMILES comes first, the peptide text is derived from it.
// note: answer is a bare numeric in %

Prompt: Dear colleague, I am looking for the recorded inhibition of the following molecule: Oc1cc(O)c2c(c1)O[C@H](c1cc(O)c(O)c(O)c1)[C@H](O)[C@H]2c1c(O)cc(O)c2c1O[C@H](c1cc(O)c(O)c(O)c1)[C@H](O)[C@H]2c1c(O)cc(O)c2c1O[C@H](c1cc(O)c(O)c(O)c1)[C@H](O)C2
Completion: 11.5

Prompt: Dear colleague, I am looking for the recorded inhibition of the following molecule: O=C(O)c1cn(C2CC2)c2cc(N3CCNCC3)c(F)cc2c1=O
Completion: -0.391

Prompt: Dear colleague, I am looking for the recorded inhibition of the following molecule: COc1cc(C/C=C/c2ccccc2)c(OC)cc1O
Completion: 9.29

Prompt: Dear colleague, I am looking for the recorded inhibition of the following molecule: CC1(C)[C@@H](O)CC[C@]2(C)[C@H]3C(=O)C=C4[C@@H]5C[C@@](C)(C(=O)O)CC[C@]5(C)CC[C@@]4(C)[C@]3(C)CC[C@@H]12
Completion: 6.1

Prompt: Dear colleague, I am looking for the recorded inhibition of the following molecule: O=C/C=C/c1ccc(O)cc1
Completion: 1.58

Prompt: Dear colleague, I am looking for the recorded inhibition of the following molecule: COc1cc2c(cc1OC)C1C(=O)c3c(cc4c(c3O)C=CC(C)(C)O4)OC1CO2 (stereo not drawn)
Completion: 7.64

Prompt: Dear colleague, I am looking for the recorded inhibition of the following molecule: N[C@@H](Cc1ccccc1)C(=O)N[C@@H](Cc1ccc(O)cc1)C(=O)O (H-Phe-Tyr-OH)
Completion: -6.19

Prompt: Dear colleague, I am looking for the recorded inhibition of the following molecule: COc1ccc(-c2coc3cc(O)ccc3c2=O)c(OC)c1O
Completion: 1.46
